Test: AUC (0 to 8 hrs) in Sprague-Dawley rat at 1 mg/kg, po administered as cassette dose by LC-MS/MS analysis
Assay type: ADME, organism-based
Set-up: time < 8 hr, dose 1 mg/kg, route oral
Conditions: in vivo
measured property: AUC(0-t) at 8 h (ng·h/mL)
State the answer as a number, implicitly in ng·h/mL.

Here are 3 compounds together with their reported answers.
# smiles entry, experimental value
data = [
    ("Cc1cc(-c2cc(Cc3cc(F)cc(C(F)(F)F)c3)nn2C)ccc1C(N)=O", 155),
    ("Cc1cc(-c2sc(Cc3cc(F)cc(C(F)(F)F)c3)nc2C)ccc1C(N)=O", 60.5),
    ("Cc1cc(-n2cc(Cc3cc(F)cc(C(F)(F)F)c3)nc2C)ccc1C(N)=O", 268),
]

Next:
Tell us which AUC(0-t) at 8 h value is on record for Cc1cc(-n2nc(Cc3cc(F)cc(C(F)(F)F)c3)nc2C)ccc1C(N)=O
384

====

Experiment: Metabolic stability in rat liver microsomes at 1 uM after 15 to 30 mins in presence of NADPH by LC/MS/MS analysis
Type: ADME, microsome
Conditions: read-out: Stability
measured property: microsomal CLint at 1 µM (µL/min/mg)
State the answer as a number, implicitly in µL/min/mg.

Tell us which microsomal CLint at 1 µM value is on record for Cc1cc(-n2nc(Cc3cc(F)cc(C(F)(F)F)c3)nc2C)ccc1C(N)=O [TP-024]
9

====

Molecular target: G-protein coupled receptor 52 (Mus musculus, UniProt P0C5J4)
Sequence (P0C5J4 whole entry): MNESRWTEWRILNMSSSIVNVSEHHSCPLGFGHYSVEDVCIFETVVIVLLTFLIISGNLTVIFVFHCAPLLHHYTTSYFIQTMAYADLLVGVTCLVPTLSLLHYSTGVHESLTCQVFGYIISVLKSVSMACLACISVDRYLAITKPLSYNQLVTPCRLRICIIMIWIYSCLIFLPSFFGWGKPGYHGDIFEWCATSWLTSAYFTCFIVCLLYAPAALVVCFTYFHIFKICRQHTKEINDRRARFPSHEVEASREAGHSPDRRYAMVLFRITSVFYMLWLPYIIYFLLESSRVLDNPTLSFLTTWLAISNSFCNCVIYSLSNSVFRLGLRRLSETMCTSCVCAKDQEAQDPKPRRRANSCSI
Assay: Agonist activity at mouse GPR52
measured property: EC50 (nM)
State the answer as a number, implicitly in nM.

Tell us which EC50 value is on record for Cc1cc(-n2nc(Cc3cc(F)cc(C(F)(F)F)c3)nc2C)ccc1C(N)=O
71

====

Target: dopamine D2L receptor (Homo sapiens)
Sequence (P14416 whole entry): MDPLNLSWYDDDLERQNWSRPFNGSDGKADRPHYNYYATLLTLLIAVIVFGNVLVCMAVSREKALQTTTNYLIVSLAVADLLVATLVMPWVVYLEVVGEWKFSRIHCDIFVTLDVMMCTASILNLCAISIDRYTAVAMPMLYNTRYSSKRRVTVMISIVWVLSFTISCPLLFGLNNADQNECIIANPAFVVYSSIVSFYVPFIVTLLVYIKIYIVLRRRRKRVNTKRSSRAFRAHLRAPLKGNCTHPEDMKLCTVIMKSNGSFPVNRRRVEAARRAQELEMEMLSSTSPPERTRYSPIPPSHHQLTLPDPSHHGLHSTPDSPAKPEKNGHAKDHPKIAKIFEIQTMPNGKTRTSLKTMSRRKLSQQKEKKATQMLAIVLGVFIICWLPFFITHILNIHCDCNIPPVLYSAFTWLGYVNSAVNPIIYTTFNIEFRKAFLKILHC
Test: Inhibition of dopamine D2L receptor (unknown origin) at 10 uM
measured property: inhibition at 10 µM

Tell us which inhibition at 10 µM value is on record for Cc1cc(-n2nc(Cc3cc(F)cc(C(F)(F)F)c3)nc2C)ccc1C(N)=O
< 50%

====

Assay: Protein binding in ICR mouse plasma at 1 uM after 24 hrs by LC/MS/MS based equilibrium dailysis method
Format: ADME, cell-free
Settings: read-out: PPB (converted)
measured property: fraction unbound at 24 h, 1 µM

Tell us which fraction unbound at 24 h, 1 µM value is on record for Cc1cc(-n2nc(Cc3cc(F)cc(C(F)(F)F)c3)nc2C)ccc1C(N)=O [TP-024]
0.199

====

Assay: Tmax in ICR mouse plasma at 30 mg/kg, po by LC/MS/MS analysis
Assay type: ADME, organism-based
measured property: Tmax (h)
State the answer as a number, implicitly in h.

Tell us which Tmax value is on record for Cc1cc(-n2nc(Cc3cc(F)cc(C(F)(F)F)c3)nc2C)ccc1C(N)=O
1

====

Below is a list of entries, each paired with its recorded bioavailability value.
Experiment: Oral bioavailability in Sprague-Dawley rat at 1 mg/kg administered as cassette dose by LC-MS/MS analysis
Assay type: ADME, organism-based
Settings: in vivo
Be sure to follow the number with its unit.

Here are 3 molecules together with their reported answers.
# molecule, bioavailability
data = [
    ("Cc1cc(-n2nc(Cc3cc(F)cc(C(F)(F)F)c3)nc2C)ccc1C(N)=O [TP-024]", "53.8%"),
    ("Cc1cc(-c2cc(Cc3cc(F)cc(C(F)(F)F)c3)nn2C)ccc1C(N)=O", "30.5%"),
    ("Cc1cc(-n2cc(Cc3cc(F)cc(C(F)(F)F)c3)nc2C)ccc1C(N)=O", "28.4%"),
]

Next:
Tell us which bioavailability value is on record for Cc1cc(-c2sc(Cc3cc(F)cc(C(F)(F)F)c3)nc2C)ccc1C(N)=O
14%

====

Assay: Tmax in ICR mouse brain at 10 mg/kg, po by LC/MS/MS analysis
Format: ADME, organism-based
measured property: Tmax (min)
State the answer as a number, implicitly in min.

Tell us which Tmax value is on record for Cc1cc(-n2nc(Cc3cc(F)cc(C(F)(F)F)c3)nc2C)ccc1C(N)=O
30

====

Experiment: MRT in ICR mouse brain at 30 mg/kg, po by LC/MS/MS analysis
Format: ADME, organism-based
measured property: MRT
Be sure to follow the number with its unit.

Tell us which MRT value is on record for Cc1cc(-n2nc(Cc3cc(F)cc(C(F)(F)F)c3)nc2C)ccc1C(N)=O [TP-024]
3.25 h

====

Assay: AUC (0 to 24 hrs) in ICR mouse plasma at 30 mg/kg, po by LC/MS/MS analysis
Assay type: ADME, organism-based
Set-up: time < 24 hr, dose 30 mg/kg, route oral
measured property: AUC(0-t) at 24 h
Be sure to follow the number with its unit.

Tell us which AUC(0-t) at 24 h value is on record for Cc1cc(-n2nc(Cc3cc(F)cc(C(F)(F)F)c3)nc2C)ccc1C(N)=O [TP-024]
6200 ng·h/mL
